assay: Nrf2 qHTS screen for inhibitors: Nrf2 A549 ARE-Fluc Confirmation Assay for Hit Validation; conditions: A549 ARE-firefly luciferase reporter, luminescence; series mostly up to 46.1 µM; further: potency means the concentration at half of the fitted maximal effect; nearly all actives have a fitted effect of over 65% in size
The whole screen tested about 1,400 compounds, of which about 1,000 (71%) were called active. Roughly 12% stayed inconclusive and do not appear here. So high a share suggests a set chosen from earlier hits. These entries were drawn from the full list.
Potency listing for selected compounds.

Solved entries:
CC(C)(C)n1ncc2c(=O)n(Cc3ccc(C(=O)c4ccccc4)cc3)cnc21    1.3 µM (active)
CCOC(=O)c1cnc(-n2nc(C)cc2C)nc1NNc1cc(C)nc(-c2ccccc2)n1    5.17 µM (active)
COc1cccc(-c2nnc(NC(=O)c3ccc(S(=O)(=O)N(CC(C)C)CC(C)C)cc3)o2)c1    2.59 µM (active)
Cc1csc[n+]1CCC1CCCCC1    9.2 µM (active)

[ask] Identify measured Potency corresponding to Cc1cccc(N2CCN(C(=O)CCS(=O)(=O)c3ccc4c(c3)NC(=O)C(C)S4)CC2)c1C (stereo not given)
[reply] 18.4 µM (active)

Every entry's value here was drawn from PubChem BioAssay AID720524.
